Entries and their pIC50 values follow.
# Assayed Target: Electrophorus electricus AChE (EeAChE) (Electrophorus electricus, UniProt O42275)
# Construct: from human erythrocyte and E. electricus (EeAChE) (type VI-S); purchased Sigma-Aldrich (Germany) type VI-S; host or cells: Electrophorus electricus tissue
# Sequence (O42275 24-633): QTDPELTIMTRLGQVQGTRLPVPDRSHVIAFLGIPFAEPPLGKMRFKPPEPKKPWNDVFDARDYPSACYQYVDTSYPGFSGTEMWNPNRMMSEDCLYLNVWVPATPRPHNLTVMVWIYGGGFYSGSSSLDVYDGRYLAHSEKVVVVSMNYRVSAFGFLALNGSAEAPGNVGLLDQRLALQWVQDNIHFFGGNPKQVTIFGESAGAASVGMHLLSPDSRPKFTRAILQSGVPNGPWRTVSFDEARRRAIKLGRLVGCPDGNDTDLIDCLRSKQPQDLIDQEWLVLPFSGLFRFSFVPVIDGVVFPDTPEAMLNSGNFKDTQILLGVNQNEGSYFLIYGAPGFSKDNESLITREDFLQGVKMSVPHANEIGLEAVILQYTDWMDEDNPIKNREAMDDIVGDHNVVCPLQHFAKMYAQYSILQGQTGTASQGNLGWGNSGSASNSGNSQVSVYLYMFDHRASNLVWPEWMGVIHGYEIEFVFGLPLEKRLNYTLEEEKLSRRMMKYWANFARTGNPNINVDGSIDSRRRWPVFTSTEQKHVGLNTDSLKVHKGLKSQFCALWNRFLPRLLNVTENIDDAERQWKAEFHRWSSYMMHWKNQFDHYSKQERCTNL
# Test Method Notes: biochemical
# Type: biochemical
# Conditions: mean ± SEM, n ≥ 3; read-out: EeAChE IC50
# Experimental: Acetylcholinesterase (AChE, EC 3.1.1.7, from human erythrocyte and E. electricus (EeAChE) (type VI-S), butyrylcholinesterase (BChE, EC 3.1.1.8, from equine serum), carboxylesterase (CaE, EC 3.1.1.1, from porcine liver), acetylthiocholine iodide (ATCh), butylthiocholine iodide (BTCh), 5,5′-dithiobis-(2-nitrobenzoic acid) (DTNB), 4-nitrophenyl acetate (4-NPA), were purchased from Sigma-Aldrich (Germany). AChE and BChE activities were measured by the Ellman method as described earlier. […]
pIC50 here: minus log base 10 of the concentration, concentration in moles per litre.

[[record]]
substance_smiles = "CCN1CCc2c(c3cc(C)ccc3n2CCC(=O)N2c3ccc(N(C)C)cc3Sc3cc(N(C)C)ccc32)C1.Cl.Cl.Cl"
reported_property = "pIC50"
result = 6.19

[[record]]
substance_smiles = "CCCN1CCc2c(c3cc(C)ccc3n2CCC(=O)N2c3ccc(N(C)C)cc3Sc3cc(N(C)C)ccc32)C1.Cl.Cl.Cl"
reported_property = "pIC50"
result = 6.10


Ask | Which pIC50 value belongs to CN1CCc2c(c3ccccc3n2CCC(=O)N2c3ccc(N(C)C)cc3Sc3cc(N(C)C)ccc32)C1.Cl.Cl.Cl ?
Reply | 6.08

---

# Assayed Target: porcine liver carboxylesterase (CaE) (Sus scrofa)
# Sequence (Q29550 19-566): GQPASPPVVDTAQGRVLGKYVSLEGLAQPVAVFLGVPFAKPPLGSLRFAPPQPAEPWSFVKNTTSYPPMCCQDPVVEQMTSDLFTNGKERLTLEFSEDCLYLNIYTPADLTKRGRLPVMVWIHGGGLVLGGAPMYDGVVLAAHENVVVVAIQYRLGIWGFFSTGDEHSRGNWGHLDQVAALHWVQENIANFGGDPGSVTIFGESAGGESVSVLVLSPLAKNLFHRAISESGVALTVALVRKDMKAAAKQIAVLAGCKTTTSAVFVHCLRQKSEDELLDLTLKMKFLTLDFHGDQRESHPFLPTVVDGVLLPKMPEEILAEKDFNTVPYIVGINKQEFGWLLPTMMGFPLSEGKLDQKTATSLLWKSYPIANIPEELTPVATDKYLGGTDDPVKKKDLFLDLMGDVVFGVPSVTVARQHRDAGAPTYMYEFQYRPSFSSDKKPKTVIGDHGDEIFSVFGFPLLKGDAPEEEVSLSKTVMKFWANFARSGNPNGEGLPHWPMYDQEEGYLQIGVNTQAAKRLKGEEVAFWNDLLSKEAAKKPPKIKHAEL
# Test Method Notes: CaE inhibition (4-nitrophenyl acetate hydrolysis)
# Type: biochemical
# Conditions: 20 µM, mean ± SEM, n ≥ 3, n.a. = not active at 20 µM
Reported Property: % inhibition of CaE at 20 µM (%)
Respond numerically; units are % and should not be typed.

Before answering, review these 4 worked examples.
[[record]]
substance_smiles = "CCN1CCc2c(c3ccccc3n2CCC(=O)N2c3ccc(N(C)C)cc3Sc3cc(N(C)C)ccc32)C1.Cl.Cl.Cl"
reported_property = "% inhibition of CaE at 20 µM"
result = 18.1

[[record]]
substance_smiles = "CN1CCc2c(c3ccccc3n2CCC(=O)N2c3ccc(N(C)C)cc3Sc3cc(N(C)C)ccc32)C1.Cl.Cl.Cl"
reported_property = "% inhibition of CaE at 20 µM"
result = 21.5

[[record]]
substance_smiles = "CCN1CCc2c(c3cc(C)ccc3n2CCC(=O)N2c3ccc(N(C)C)cc3Sc3cc(N(C)C)ccc32)C1.Cl.Cl.Cl"
reported_property = "% inhibition of CaE at 20 µM"
result = 15.7

[[record]]
substance_smiles = "CCCN1CCc2c(c3cc(C)ccc3n2CCC(=O)N2c3ccc(N(C)C)cc3Sc3cc(N(C)C)ccc32)C1.Cl.Cl.Cl"
reported_property = "% inhibition of CaE at 20 µM"
result = 9.8


Now for a further compound.
Ask | Short answer please: % inhibition of CaE at 20 µM, porcine liver carboxylesterase (CaE) (Sus scrofa), entry Cc1ccc2c(c1)c1c(n2CCC(=O)N2c3ccc(N(C)C)cc3Sc3cc(N(C)C)ccc32)CCN(C(C)C)C1.Cl.Cl.Cl
Reply | 19.5

---

# Assayed Target: BChE from equine serum (Equus caballus, UniProt P81908)
# Construct: butyrylcholinesterase (BChE, EC 3.1.1.8, from equine serum)
# Sequence (P81908 whole entry): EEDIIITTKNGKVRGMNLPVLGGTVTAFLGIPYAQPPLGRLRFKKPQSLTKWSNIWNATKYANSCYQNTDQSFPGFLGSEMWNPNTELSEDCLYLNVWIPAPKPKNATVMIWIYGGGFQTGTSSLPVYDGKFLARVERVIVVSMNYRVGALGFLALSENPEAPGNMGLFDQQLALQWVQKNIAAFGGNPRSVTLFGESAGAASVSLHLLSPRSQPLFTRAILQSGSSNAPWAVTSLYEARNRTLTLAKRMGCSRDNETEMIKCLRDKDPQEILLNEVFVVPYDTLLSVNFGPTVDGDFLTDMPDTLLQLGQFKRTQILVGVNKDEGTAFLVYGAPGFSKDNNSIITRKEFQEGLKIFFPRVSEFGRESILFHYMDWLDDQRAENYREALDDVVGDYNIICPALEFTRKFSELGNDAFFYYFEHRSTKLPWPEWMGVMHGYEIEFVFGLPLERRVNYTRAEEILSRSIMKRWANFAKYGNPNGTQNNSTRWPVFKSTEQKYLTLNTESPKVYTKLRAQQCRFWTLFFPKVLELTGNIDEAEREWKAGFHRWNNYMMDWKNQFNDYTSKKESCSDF
# Conditions: Lineweaver-Burk analysis; read-out: Ki (competitive component), BChE
Entries and their Ki values follow.
Respond numerically; units are nM and should not be typed.

[[record]]
substance_smiles = "Cc1ccc2c(c1)c1c(n2CCC(=O)N2c3ccc(N(C)C)cc3Sc3cc(N(C)C)ccc32)CCN(C)C1"
result = 370


Now for a further compound.
Ask | Which Ki value belongs to Cc1ccc2c(c1)c1c(n2CCC(=O)N2c3ccc(N(C)C)cc3Sc3cc(N(C)C)ccc32)CCN(C(C)C)C1.Cl.Cl.Cl ?
Reply | 530

---

# Tested on: isolated rat liver mitochondria
# Test Method Notes: Mitochondrial membrane potential (safranine O)
# Type: biochemical
# Conditions: 30 µM, 10-min incubation; energized with Complex-I substrates (glutamate, malate); mean ± SD, n ≥ 5
Reported Property: ΔΨm, % depolarization, CI (g/m) (%)
Respond numerically; units are % and should not be typed.

Before answering, review these 7 worked examples.
[[record]]
compound = "CN1CCc2c(c3ccccc3n2CCC(=O)N2c3ccc(N(C)C)cc3Sc3cc(N(C)C)ccc32)C1.Cl.Cl.Cl [Compound 1]"
unit_of_measure = "%"
result = 20

[[record]]
compound = "Cc1ccc2c(c1)c1c(n2CCC(=O)N2c3ccc(N(C)C)cc3Sc3cc(N(C)C)ccc32)CCN(C)C1 [Compound 3]"
unit_of_measure = "%"
result = 29

[[record]]
compound = "CN1CCc2c(c3cc(F)ccc3n2CCC(=O)N2c3ccc(N(C)C)cc3Sc3cc(N(C)C)ccc32)C1 [Compound 7]"
unit_of_measure = "%"
result = 13

[[record]]
compound = "Cc1ccc2c(c1)c1c(n2CCC(=O)N2c3ccc(N(C)C)cc3Sc3cc(N(C)C)ccc32)CCN(C(C)C)C1.Cl.Cl.Cl [Compound 6]"
unit_of_measure = "%"
result = 8

[[record]]
compound = "CCCN1CCc2c(c3cc(C)ccc3n2CCC(=O)N2c3ccc(N(C)C)cc3Sc3cc(N(C)C)ccc32)C1.Cl.Cl.Cl [Compound 5]"
unit_of_measure = "%"
result = 17

[[record]]
compound = "CCN1CCc2c(c3ccccc3n2CCC(=O)N2c3ccc(N(C)C)cc3Sc3cc(N(C)C)ccc32)C1.Cl.Cl.Cl [Compound 2]"
unit_of_measure = "%"
result = 7

[[record]]
compound = "CCN1CCc2c(c3cc(C)ccc3n2CCC(=O)N2c3ccc(N(C)C)cc3Sc3cc(N(C)C)ccc32)C1.Cl.Cl.Cl [Compound 4]"
unit_of_measure = "%"
result = 9


Now for a further compound.
Ask | Which ΔΨm, % depolarization, CI (g/m) value belongs to CN(C)c1ccc2nc3ccc(=[N+](C)C)cc-3sc2c1 [MB, methylene blue, reference compound] ?
Reply | 14

---

The next entries give measured IC50 for human erythrocyte acetylcholinesterase (AChE) (Homo sapiens).
Respond numerically; units are µM and should not be typed.

Before answering, review these 3 worked examples.
[[record]]
molecule = "CN1CCc2c(c3ccccc3n2CCC(=O)N2c3ccc(N(C)C)cc3Sc3cc(N(C)C)ccc32)C1.Cl.Cl.Cl"
result = 3.17

[[record]]
molecule = "CCN1CCc2c(c3cc(C)ccc3n2CCC(=O)N2c3ccc(N(C)C)cc3Sc3cc(N(C)C)ccc32)C1.Cl.Cl.Cl"
result = 4.03

[[record]]
molecule = "CN1CCc2c(c3cc(F)ccc3n2CCC(=O)N2c3ccc(N(C)C)cc3Sc3cc(N(C)C)ccc32)C1"
result = 6.86


Ask | Short answer please: IC50, human erythrocyte acetylcholinesterase (AChE) (Homo sapiens), entry Cc1ccc2c(c1)c1c(n2CCC(=O)N2c3ccc(N(C)C)cc3Sc3cc(N(C)C)ccc32)CCN(C)C1
Reply | 1.73

---

# System: isolated rat liver mitochondria
# Test Method Notes: Mitochondrial membrane potential (safranine O)
# Format: biochemical
# Conditions: 30 µM, 10-min incubation; energized with succinate in the presence of rotenone; mean ± SD, n ≥ 5
# Method: Mitochondria and the mitochondrial permeability transition (MPT) are key players in the cascades of events leading to cell death. Consequently, inhibition of the MPT is a promising target in neuroprotection. […] Consequently, we measured the effect of our conjugates of MB and γ-carbolines on mitochondrial membrane potential under two conditions. […] Conjugates (30 μM) were incubated with mitochondria and the effect on mitochondrial membrane potential was measured. […]
Entries and their ΔΨm, % depolarization, CII (s/r) values follow.
Respond numerically; units are % and should not be typed.

Before answering, review these 3 worked examples.
[[record]]
molecule = "CN(C)c1ccc2nc3ccc(=[N+](C)C)cc-3sc2c1 [MB, methylene blue, reference compound]"
result = 40

[[record]]
molecule = "Cc1ccc2c(c1)c1c(n2CCC(=O)N2c3ccc(N(C)C)cc3Sc3cc(N(C)C)ccc32)CCN(C)C1 [Compound 3]"
result = 67

[[record]]
molecule = "CN1CCc2c(c3cc(F)ccc3n2CCC(=O)N2c3ccc(N(C)C)cc3Sc3cc(N(C)C)ccc32)C1 [Compound 7]"
result = 67


Ask | Which ΔΨm, % depolarization, CII (s/r) value belongs to CN1CCc2c(c3ccccc3n2CCC(=O)N2c3ccc(N(C)C)cc3Sc3cc(N(C)C)ccc32)C1.Cl.Cl.Cl [Compound 1] ?
Reply | 64

Ask | Which ΔΨm, % depolarization, CII (s/r) value belongs to CCN1CCc2c(c3ccccc3n2CCC(=O)N2c3ccc(N(C)C)cc3Sc3cc(N(C)C)ccc32)C1.Cl.Cl.Cl [Compound 2] ?
Reply | 48
